Test system: SKOV3
Experiment: Primary qHTS to identify gynecologic anti-cancer compounds using libraries of approved drugs and bioactive compounds (AID 1345084); note: nearly all actives have a fitted effect of over 55% in size; note: potency is the fitted concentration of half-maximal effect
Details: Gynecologic cancer cell panel viability, ATPlite luminescence, 48 h; series mostly up to 57.5 µM
Description: National Center for Advancing Translational Sciences [NCATS] Assay Overview: Chemotherapeutic drug responses vary from cancer to cancer and from patient to patient. […] ATPlite is a luminescence based assay reliant on the conversion of a luciferase substrate to light in the presence of ATP. As a cytotoxic compound will suppress growth and decrease the number of cells, the concentration of ATP will decrease, and less light signal will be detected in the well. […]
Inconclusive results are not listed. Calls of active or inactive are those of the source. Calls come from the whole dose curve; as a rule, active = well fitted cell-killing curve with a large enough effect; inconclusive = small, poorly fitted or top-dose-only effect, or effect the other way; inactive = flat fitted curve, though single readings scatter.
measure: Potency

Please review the entries below; each comes with its answer.
Nc1ccc(S(=O)(=O)Nc2cnc3ccccc3n2)cc1
inactive
CCCCC(CC)CN1CN(CC(CC)CCCC)CC(C)(N)C1 (stereo unspecified)
inactive
c1ccc(-c2nc[nH]c2-c2ccccc2)cc1
inactive
CC(O)Cn1cnc2c1c(=O)n(C)c(=O)n2C (stereo unspecified)
inactive
O=c1[nH]c(=O)n([C@H]2C[C@H](O)[C@@H](CO)O2)cc1F
7.94 µM (active)

Please look at the following compound next.
# input Query: Potency; subject: `CCOc1ccccc1OCCN[C@H](C)Cc1ccc(OC)c(S(N)(=O)=O)c1`
# output inactive

* * *

System: CP335
Assay: qHTS profiling for inhibitors of Plasmodium falciparum proliferation (AID 504749); note: nearly all actives have a fitted effect of over 60% in size
Conditions: P. falciparum in erythrocytes, SYBR Green DNA, 72 h; series mostly up to 28.7 µM
Inconclusive results are not listed. Activity calls are given as the source filed them. Calls come from the whole dose curve; as a rule, active = well fitted inhibition curve with a large enough effect; inconclusive = small, poorly fitted or top-dose-only effect; inactive = flat fitted curve, though single readings scatter.
# valid calls are t (active), f (inactive); nothing else

Example cases with answers are listed next.
CC(=O)Nc1ncc([N+](=O)[O-])s1
f
O=C(O)C(Cc1cc(I)c(O)c(I)c1)c1ccccc1 (stereo not given)
f
COc1cc(C(=S)N2CCOCC2)ccc1O
f
CCCN(CCc1cccs1)[C@H]1CCc2c(O)cccc2C1
t
N=C(N)N1CCc2ccccc2C1
f

# input Hey, what did the test say about O=C1C(=O)c2ccccc2C(O)=C1C1CCC(c2ccc(Cl)cc2)CC1 (stereo not given) ?
# output t

# input Hey, what did the test say about `OC[C@H]1O[C@@H]2O[C@H]3[C@H](O)[C@@H](O)[C@@H](O[C@H]4[C@H](O)[C@@H](O)[C@@H](O[C@H]5[C@H](O)[C@@H](O)[C@@H](O[C@H]6[C@H](O)[C@@H](O)[C@@H](O[C@H]7[C@H](O)[C@@H](O)[C@@H](O[C@H]8[C@H](O)[C@@H](O)[C@@H](O[C@H]1[C@H](O)[C@H]2O)O[C@@H]8CO)O[C@@H]7CO)O[C@@H]6CO)O[C@@H]5CO)O[C@@H]4CO)O[C@@H]3CO` ?
# output f

# input Hey, what did the test say about `COc1cc(C)nc(-n2nc(C)cc2OC)n1` ?
# output f

# input Hey, what did the test say about `NS(=O)(=O)c1ccc(Cl)c(S(N)(=O)=O)c1` ?
# output f

# input Hey, what did the test say about `CCN(CC)CCNc1ccc(CO)c2sc3ccccc3c(=O)c12` ?
# output t

* * *

Test: Cell Viability - LYMP2-024 (AID 988);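 note: cells exposed to compound for 24 hr at 37 °C; nearly all actives have a fitted effect of over 60% in size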
Settings: LYMP2-024 lymphoblastoid cell viability; series mostly up to 92.2 µM
Inconclusive results are not listed. Activity calls are given as the source filed them. The call rests on the fitted dose curve; in most records, active means well fitted cell-killing curve with a large enough effect; inconclusive means small, poorly fitted or top-dose-only effect; inactive means flat fitted curve, though single readings scatter.
# valid calls are Yes for active, No for inactive; nothing else

Example cases with answers are listed next.
NC(=O)c1ccccc1O
No
COc1ccc(C(Cl)=C(c2ccc(OC)cc2)c2ccc(OC)cc2)cc1
No
Oc1c(Cl)cc(Cl)c(Cl)c1Cc1c(O)c(Cl)cc(Cl)c1Cl
Yes
C/C=C/c1ccc(O)c(OC)c1
No
CCCCC(CC)COC(=O)c1ccc(N(C)C)cc1 (stereo unspecified)
No

Continue with the next compound.
# input Hey, what did the test say about `OC[C@H]1O[C@@H]2O[C@H]3[C@H](O)[C@@H](O)[C@@H](O[C@H]4[C@H](O)[C@@H](O)[C@@H](O[C@H]5[C@H](O)[C@@H](O)[C@@H](O[C@H]6[C@H](O)[C@@H](O)[C@@H](O[C@H]7[C@H](O)[C@@H](O)[C@@H](O[C@H]8[C@H](O)[C@@H](O)[C@@H](O[C@H]1[C@H](O)[C@H]2O)O[C@@H]8CO)O[C@@H]7CO)O[C@@H]6CO)O[C@@H]5CO)O[C@@H]4CO)O[C@@H]3CO` ?
# output No

* * *

System: CP211
Test: qHTS profiling for inhibitors of Plasmodium falciparum proliferation (AID 504749); note: nearly all actives have a fitted effect of over 60% in size
Settings: P. falciparum in erythrocytes, SYBR Green DNA, 72 h; series mostly up to 28.7 µM
Results filed as inconclusive are left out. Active and inactive are the calls of the source. The call rests on the fitted dose curve; in most records, active means well fitted inhibition curve with a large enough effect; inconclusive means small, poorly fitted or top-dose-only effect; inactive means flat fitted curve, though single readings scatter.
# valid calls are class 1 = active, class 0 = inactive; nothing else

Example cases with answers are listed next.
COc1ccc(CCN(C)CCCN2CCc3cc(OC)c(OC)cc3CC2=O)cc1OC
class 0
CN1CCC[C@@H]1CCO[C@](C)(c1ccccc1)c1ccc(Cl)cc1
class 0
CC(=O)Nc1ccc(S(=O)(=O)Nc2ccc([N+](=O)[O-])cc2)cc1
class 0
Cc1cc(-c2ccccc2)nnc1NCCN1CCOCC1
class 0
NCc1ccccc1Sc1ccccc1CO
class 0
CN(Cc1ccc(C(C)(C)C)cc1)Cc1cccc2ccccc12
class 0
Cc1cccc(C)c1NC(=O)CN1CCCC1
class 0
CC(C)(C)NC[C@H](O)COc1cccc2c1CCCC2=O
class 0

# input Hey, what did the test say about `NC(=O)n1c(O)c(C(=O)c2cccs2)c2cc(Cl)ccc21` ?
# output class 0

# input Hey, what did the test say about `CCN(CC)CCNC(=O)COc1ccc(OC)cc1` ?
# output class 0

# input Hey, what did the test say about `C/C=C/c1ccc(O)c(OC)c1` ?
# output class 0

# input Hey, what did the test say about `CCOC(=O)Nc1ccc2c(c1)N(C(=O)CCN1CCOCC1)c1ccccc1S2` ?
# output class 0

# input Hey, what did the test say about `CC(C)(C)CC(C)(C)c1ccc(O)c(-n2nc3ccccc3n2)c1` ?
# output class 0

# input Hey, what did the test say about Clc1cccc(C(c2ccc3nc[nH]c3c2)n2ccnc2)c1 (stereo unspecified) ?
# output class 1

# input Hey, what did the test say about `CC(=O)N[C@@H](CCC(=O)O)C(=O)O` ?
# output class 0

# input Hey, what did the test say about `CCNC(=O)/C=C/c1cccc(Br)c1` ?
# output class 0

# input Hey, what did the test say about `C/C=C/C=N/NC(=O)c1ccncc1` ?
# output class 0

# input Hey, what did the test say about `NC(=O)c1ccccc1O` ?
# output class 0

# input Hey, what did the test say about `COc1ccc(-c2cc(C(F)F)nn2-c2ccc(S(N)(=O)=O)cc2)cc1F` ?
# output class 0

# input Hey, what did the test say about Cc1cc(C)cc(OCC2CNC(=O)O2)c1 (stereo unspecified) ?
# output class 0

# input Hey, what did the test say about OC1C(O)C(O)C(O)C(O)C1O (stereo unspecified) ?
# output class 0

# input Hey, what did the test say about `COc1ccc(CN(CCN(C)C)c2ncccn2)cc1` ?
# output class 0

# input Hey, what did the test say about `CC(=O)Nc1ccc(OC(=O)c2ccccc2OC(C)=O)cc1` ?
# output class 0

# input Hey, what did the test say about `CC(C)Cc1ccc(CC(=O)O)cc1` ?
# output class 0

# input Hey, what did the test say about `O[C@@H](c1cc(C(F)(F)F)nc2c(C(F)(F)F)cccc12)[C@H]1CCCCN1` ?
# output class 1

# input Hey, what did the test say about `CCCCNc1ccc(C(=O)OCCOCCOCCOCCOCCOCCOCCOCCOCCOC)cc1` ?
# output class 0

* * *

Test: Drug repurposing screens with cells derived from glioblastoma tumor samples (AID 1345199); note: % is set by controls: 0 for no effect and ±100 for the full control effect; nearly all actives have a fitted effect of over 40% in size
Conditions: GBM patient neurospheres viability, ATP luminescence, 48 h; at 45.9 µM (top of the series); tumour line B
Records with an inconclusive call do not appear.
measure: activity, negative = cell killing (%)
Please respond with the number in % and leave the unit unwritten.

Please review the entries below; each comes with its answer.
Cc1cn([C@H]2C[C@H](F)[C@@H](CO)O2)c(=O)[nH]c1=O
-16.6
CN1CCN(c2c(F)cc3c(=O)c(C(=O)O)cn4c3c2SCC4)CC1
-10.6
CCN(CC)CCNC(=O)c1cc(Br)c(N)cc1OC
-11.2
C#C[C@]1(O)CC[C@H]2[C@@H]3CCC4=CC(=O)CC[C@@H]4[C@H]3CC[C@@]21CC
-8.91
CCCCC(CC)COC(=O)/C=C/c1ccc(OC)cc1 (stereo unspecified)
-11.8

# input Query: activity, negative = cell killing; subject: `C[C@]12CCC(=O)C=C1C=C[C@@H]1[C@@H]2CC[C@@]2(C)[C@H]1CC[C@@]21CCC(=O)O1`
# output -20

# input Query: activity, negative = cell killing; subject: `O=C(O)Cc1csc(-c2ccc(Cl)cc2)n1`
# output -6.84

# input Query: activity, negative = cell killing; subject: `CC(C)n1c(/C=C/[C@@H](O)C[C@@H](O)CC(=O)O)c(-c2ccc(F)cc2)c2ccccc21`
# output -35.6

# input Query: activity, negative = cell killing; subject: CC[N+](C)(CC)CCOC(=O)C(O)(c1ccccc1)C1CCCCC1 (stereo unspecified)
# output 4.51

# input Query: activity, negative = cell killing; subject: `NC(=O)C1(N2CCCCC2)CCN(CCCC(=O)c2ccc(F)cc2)CC1`
# output -7.35

# input Query: activity, negative = cell killing; subject: `NS(=O)(=O)c1ccc(Cl)c(S(N)(=O)=O)c1`
# output -6.27

# input Query: activity, negative = cell killing; subject: `CC(=C(CCOC(=O)C(C)C)SSC(CCOC(=O)C(C)C)=C(C)N(C=O)Cc1cnc(C)nc1N)N(C=O)Cc1cnc(C)nc1N`
# output 1.68

# input Query: activity, negative = cell killing; subject: `O=C(O)C1(C(=O)O)CCC1.[NH2-].[NH2-].[Pt+2]`
# output -20.6

# input Query: activity, negative = cell killing; subject: `CCN(CC)CCOC(=O)C1(c2ccccc2)CCCC1`
# output -21.1

# input Query: activity, negative = cell killing; subject: `O=C(O)c1ccc(S(=O)(=O)N(Cl)Cl)cc1`
# output -12

# input Query: activity, negative = cell killing; subject: Cc1cc(C)cc(OCC2CNC(=O)O2)c1 (stereo unspecified)
# output 0.397

Hello, the source for this data is PubChem BioAssay (NCATS), in case you need it.
